meta.source: BindingDB's records for doi:10.7270/Q24T6GSH

- assayTarget: Isoform 2 of Nuclear receptor ROR-alpha (Alpha-2) (Homo sapiens)
- protocolText: activators of RORA ligand-binding domain fusion – cell-based, CHO-K1, Gal4-RORA LBD, luciferase luminescence, counter-screen for SF-1 activator project, dose response (AID 675)
So I've got a bunch of molecules here, and I need their EC50 values.

Some molecules with recorded EC50:
CCc1nc(Nc2ccc3nccnc3c2)c2oc3ccccc3c2n1 | > 99000 nM
COC(=O)c1ccc(C(=O)C(C#N)c2nc3ccccc3s2)cc1 (stereo not given) | 1610 nM
Cc1csc2nc(CSc3nc4ccccc4o3)cn12 | 3920 nM

Give EC50 for all molecules that follow.
1. CCc1nnc(NC(=O)CSc2nc(C)c3c(c2C#N)CCCC3)s1
2. CC(C)(C)n1ncc2c(=O)n(CC(=O)NCc3ccccc3Cl)cnc21

Response line:
1. 1230 nM
2. > 136 nM

* * *

So I've got a bunch of compounds here, and I need their EC50 values.
- assayTarget: Isoform 2 of Nuclear receptor ROR-alpha (Alpha-2) (Homo sapiens, UniProt P35398)
- protocolText: activators of RORA ligand-binding domain fusion – cell-based, CHO-K1, Gal4-RORA LBD, luciferase luminescence, counter-screen for SF-1 activator project, dose response (AID 675)

CC(=NC1CCCC1)c1c(C)[nH]n(-c2nc3ccccc3s2)c1=O | > 1220 nM
COc1ccc(CNC(=O)NC2CCCCC2)cc1 | > 99000 nM
COc1ccc2nc3sc(C(=O)NCc4cccs4)c(N)c3cc2c1 | > 407 nM
COc1ccc2c(c1OC)C(=O)N1c3ccccc3SC21 (stereo unspecified) | 766 nM
Cc1ccc(C(=O)Nc2ncc(Cc3ccc(F)cc3)s2)o1 | > 407 nM

Give EC50 for all compounds that follow.
1. O=C(Cc1ccccc1)n1nc(-c2ccccc2)nc1NCc1ccco1
2. O=C(Nc1ccc2c(c1)OCO2)c1ccc(COc2ccc3c(c2)CCC3)o1 [MLS000048173]
3. CC1(C)CC(=O)C(=CNc2ccccc2)C(=O)C1 [SMR000054233]

Response line:
> 11000 nM
446 nM
> 99000 nM

Give EC50 for all compounds that follow.
1. COc1ccc2nc(Nc3nc(C)c(C(C)=O)s3)sc2c1
2. O=C(Nc1cccc(-c2nnc(-c3ccccc3)o2)c1)c1ccc(Br)o1
3. Fc1ccc2nc(Nc3nc4c(s3)CCCC4)sc2c1

Response line:
["> 1220 nM", "8560 nM", "639 nM"]

* * *

- assayTarget: Isoform 2 of Nuclear receptor ROR-alpha (Alpha-2) (Homo sapiens, UniProt P35398)
- Sequence (P35398 whole entry): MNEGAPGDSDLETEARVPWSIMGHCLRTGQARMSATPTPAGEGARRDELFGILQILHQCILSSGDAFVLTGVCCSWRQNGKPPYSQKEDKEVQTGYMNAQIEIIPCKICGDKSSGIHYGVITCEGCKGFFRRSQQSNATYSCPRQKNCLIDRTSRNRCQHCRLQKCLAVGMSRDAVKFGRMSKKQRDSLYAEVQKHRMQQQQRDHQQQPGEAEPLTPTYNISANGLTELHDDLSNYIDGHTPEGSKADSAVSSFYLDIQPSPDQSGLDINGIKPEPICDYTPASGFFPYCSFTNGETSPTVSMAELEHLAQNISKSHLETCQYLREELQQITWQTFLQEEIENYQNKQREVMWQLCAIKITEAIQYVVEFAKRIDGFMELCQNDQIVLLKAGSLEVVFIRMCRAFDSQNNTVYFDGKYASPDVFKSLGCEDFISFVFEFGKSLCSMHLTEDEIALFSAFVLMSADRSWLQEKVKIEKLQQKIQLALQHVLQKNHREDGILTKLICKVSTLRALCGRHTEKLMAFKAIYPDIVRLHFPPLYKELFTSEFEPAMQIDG
- protocolText: activators of RORA ligand-binding domain fusion – cell-based, CHO-K1, Gal4-RORA LBD, luciferase luminescence, counter-screen for SF-1 activator project, dose response (AID 675)
So I've got a bunch of compounds here, and I need their log10(EC50) values.
Plainly stated, the numbers are log10 of EC50 given in nM.

Some compounds with recorded log10(EC50):
CCOC(=O)c1cnc2c(-c3ccccc3)cnn2c1N | 2.55
CN(C)c1oc(-c2ccc(OCc3ccccc3)cc2)nc1C#N | 3.35
COc1cccc(C(=O)Nc2cccc(-c3nnc(-c4ccccc4)o3)c2)c1 | 3.24

Give log10(EC50) for all compounds that follow.
1. CC(=O)c1c(C)[nH]c(C(=O)Nc2ccc3c(c2)OCCO3)c1C
2. COCCn1c(C)cc(C(=O)COC(=O)C23CC4CC(CC(O)(C4)C2)C3)c1C

Response line:
1: 2.60; 2: 2.87

Give log10(EC50) for all compounds that follow.
1. CC(=O)c1c(C)[nH]c(C(=O)NCCc2cccc(C)c2)c1C [MLS000045238]
2. Cc1cc2n(n1)C(c1ccc(N(C)C)cc1)Nc1ccccc1-2 (stereo not given) [SMR000015202]

Response line:
[3.47, 4.03]
